Values were extracted from ChEMBL document CHEMBL1142517.

readout label: Ki

Enter Ki (test system Apoptosis regulator Bcl-2 (Homo sapiens)) for `CN(C)CC[C@H](CSc1ccccc1)Nc1ccc(S(=O)(=O)NC(=O)c2ccc(N3CCN(Cc4ccccc4-c4ccc(Cl)cc4)CC3)cc2)cc1S(C)(=O)=O`
< 1 nM

Enter Ki (test system Apoptosis regulator Bcl-2 (Homo sapiens)) for `CN(C)CC[C@H](CSc1ccccc1)Nc1ccc(S(=O)(=O)NC(=O)c2ccc(N3CCN(CC4=C(c5ccc(Cl)cc5)CCCCC4)CC3)cc2)cc1[N+](=O)[O-]`
< 1 nM

Enter Ki (test system Apoptosis regulator Bcl-2 (Homo sapiens)) for `Cc1cc(S(=O)(=O)NC(=O)c2ccc(N3CCN(Cc4ccccc4-c4ccc(Cl)cc4)CC3)cc2)ccc1N[C@H](CCN(C)C)CSc1ccccc1`
< 1 nM

Enter Ki (test system Apoptosis regulator Bcl-2 (Homo sapiens)) for `CN(C)CC[C@H](CSc1ccccc1)Nc1ccc(S(=O)(=O)NC(=O)c2ccc(N3CCN(CC4=C(c5ccc(Cl)cc5)CCCC4)CC3)cc2)cc1[N+](=O)[O-]`
< 1 nM

Enter Ki (test system Apoptosis regulator Bcl-2 (Homo sapiens)) for `CN(C)CC[C@H](CSc1ccccc1)Nc1ccc(S(=O)(=O)NC(=O)c2ccc(N3CCN(C/C4=C(\c5ccc(Cl)cc5)CCCCCC4)CC3)cc2)cc1[N+](=O)[O-]`
< 1 nM

Enter Ki (test system Apoptosis regulator Bcl-2 (Homo sapiens)) for `CN(C)CC[C@H](CSc1ccccc1)Nc1ccc(S(=O)(=O)NC(=O)c2ccc(N3CCN(CC4=C(c5ccc(Cl)cc5)CCOC4)CC3)cc2)cc1[N+](=O)[O-]`
2.4 nM
